- testedOn: SGK2 (human) (UniProt Q9HBY8)
- Sequence (Q9HBY8 whole entry, looked up): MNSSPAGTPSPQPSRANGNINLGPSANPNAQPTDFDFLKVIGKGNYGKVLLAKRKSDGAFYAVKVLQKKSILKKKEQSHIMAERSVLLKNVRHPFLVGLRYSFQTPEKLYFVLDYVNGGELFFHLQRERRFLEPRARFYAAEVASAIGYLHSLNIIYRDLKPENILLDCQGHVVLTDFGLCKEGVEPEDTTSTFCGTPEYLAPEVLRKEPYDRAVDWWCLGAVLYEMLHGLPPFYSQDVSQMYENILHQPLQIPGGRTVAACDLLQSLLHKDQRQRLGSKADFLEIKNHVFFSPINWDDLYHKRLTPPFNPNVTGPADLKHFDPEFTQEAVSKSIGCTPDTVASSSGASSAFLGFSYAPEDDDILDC
- testSummary: radiometric filter-binding kinase assay, Kinase HotSpot
- measurementConditions: compound 0.5 µM; ATP 10 µM
The threshold is inclusive: residual activity of exactly 90% counts as MET; values below receive NOT MET.

compound: CC(=O)O/N=C1\C(=C2\C(=O)Nc3cc(Br)ccc32)Nc2ccccc21
class: MET
--
compound: Cn1nc2c3c(cccc31)C(=O)c1ccccc1-2
class: MET
--
compound: Nc1nccc(-c2c(-c3ccc(F)cc3)ncn2C2CCNCC2)n1
class: MET
--
compound: O=C1Nc2ccccc2/C1=C1/Nc2ccccc2/C1=N\OCCC(O)CO (stereo unspecified)
class: NOT MET
--
compound: O=C(CCCc1ccc(-c2ccccc2F)cc1)Nc1ccc(O)cc1
class: MET
--
compound: O=C(O)/C=C/c1cc(Br)c(Br)c(Br)c1Br
class: NOT MET
--
compound: Cc1nc2cc3nc(-c4cccs4)cnc3cc2n1C
class: MET
--
compound: CC(C)c1nn(-c2c(Cl)cccc2Cl)c2nc(Cc3ccc(OCCO)cc3)nc(O)c12
class: MET
--
compound: COc1ccc(CNC(=O)Nc2ncc([N+](=O)[O-])s2)cc1
class: MET
--
compound: COc1cc2ncnc(N3CCN(C(=O)Nc4ccc(Oc5ccccc5)cc4)CC3)c2cc1OC
class: MET
